target or system: tyrosinase originating from B16 melanoma (Mus musculus)
Construct: The supernatant liquid was collected and preserved in ice until the time it was used (crude enzyme solution); endogenous in cells
Sequence (P11344 19-533): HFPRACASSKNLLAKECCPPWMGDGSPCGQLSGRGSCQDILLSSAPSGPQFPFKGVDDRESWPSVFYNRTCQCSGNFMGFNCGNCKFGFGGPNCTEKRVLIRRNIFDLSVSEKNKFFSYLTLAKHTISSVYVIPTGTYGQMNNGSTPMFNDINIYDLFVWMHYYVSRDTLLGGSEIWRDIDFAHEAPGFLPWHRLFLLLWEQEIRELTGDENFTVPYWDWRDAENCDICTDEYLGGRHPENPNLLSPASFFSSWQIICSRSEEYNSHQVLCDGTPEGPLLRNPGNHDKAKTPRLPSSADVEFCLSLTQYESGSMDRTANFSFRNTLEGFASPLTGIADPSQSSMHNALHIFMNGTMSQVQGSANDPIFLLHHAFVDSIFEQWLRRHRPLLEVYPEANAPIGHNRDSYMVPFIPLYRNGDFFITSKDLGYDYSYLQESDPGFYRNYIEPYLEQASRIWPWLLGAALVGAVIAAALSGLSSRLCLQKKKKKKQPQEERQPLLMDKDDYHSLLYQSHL
method: Inhibitory activity to tyrosinase originating from B16 melanoma
condition notes: crude enzyme solution, L-dopa substrate, pH 6.8, 25° C., two hours
measured quantity: IC50 (nM)
Numbers only, in nM.

Looking up `[C-]#[N+]/C=C/c1ccc(O[C@@H]2O[C@@H](C)[C@H](O)[C@@H](O)[C@H]2O)cc1` , I found its IC50 recorded as 1.85
